Quick record of AC50 values for Mu-type opioid receptor (Homo sapiens, UniProt P35372).
MEASURED_PROPERTY: AC50 (µM)

{"MOLECULE": "O=C(Nc1ccccc1)OCC(CN1CCCCC1)OC(=O)Nc1ccccc1 (centres undefined)", "MEASURED_PROPERTY": "AC50", "UNIT_ANNOTATION": "µM", "LT_GT_EQ": "=", "MEASUREMENT": 11.2}
{"MOLECULE": "COc1cc(Nc2c(C#N)cnc3cc(OCCCN4CCN(C)CC4)c(OC)cc23)c(Cl)cc1Cl", "MEASURED_PROPERTY": "AC50", "UNIT_ANNOTATION": "µM", "LT_GT_EQ": "=", "MEASUREMENT": 15.3}
{"MOLECULE": "CCN(CC)CCNc1ccc(C)c2sc3ccccc3c(=O)c12", "MEASURED_PROPERTY": "AC50", "UNIT_ANNOTATION": "µM", "LT_GT_EQ": "=", "MEASUREMENT": 11.8}
{"MOLECULE": "CC(=O)O[C@]1(C(C)=O)CC[C@H]2[C@@H]3C[C@H](C)C4=CC(=O)CC[C@]4(C)[C@H]3CC[C@@]21C [MEDROXYPROGESTERONE ACETATE]", "MEASURED_PROPERTY": "AC50", "UNIT_ANNOTATION": "µM", "LT_GT_EQ": ">", "MEASUREMENT": 30}
{"MOLECULE": "Cc1nc(-c2ccc(OCC(C)C)c(C#N)c2)sc1C(=O)O", "MEASURED_PROPERTY": "AC50", "UNIT_ANNOTATION": "µM", "LT_GT_EQ": ">", "MEASUREMENT": 30}
{"MOLECULE": "Cc1ccc(O)c2ncccc12", "MEASURED_PROPERTY": "AC50", "UNIT_ANNOTATION": "µM", "LT_GT_EQ": ">", "MEASUREMENT": 30}
{"MOLECULE": "CCOC(=O)C(c1c(O)c2ccccc2oc1=O)c1c(O)c2ccccc2oc1=O [ETHYL BISCOUMACETATE]", "MEASURED_PROPERTY": "AC50", "UNIT_ANNOTATION": "µM", "LT_GT_EQ": ">", "MEASUREMENT": 30}
{"MOLECULE": "O=C1CCC(N2C(=O)c3ccccc3C2=O)C(=O)N1 (centres undefined) [THALIDOMIDE]", "MEASURED_PROPERTY": "AC50", "UNIT_ANNOTATION": "µM", "LT_GT_EQ": "=", "MEASUREMENT": 0.202}
{"MOLECULE": "N/N=c1/cc2c(n[nH]1)CCN(C(=O)c1ccccc1)C2", "MEASURED_PROPERTY": "AC50", "UNIT_ANNOTATION": "µM", "LT_GT_EQ": ">", "MEASUREMENT": 30}

###

# EXPERIMENTAL_TARGET: Alpha-2C adrenergic receptor (Homo sapiens); note: assay procedure not described here
# Sequence (P18825 whole entry): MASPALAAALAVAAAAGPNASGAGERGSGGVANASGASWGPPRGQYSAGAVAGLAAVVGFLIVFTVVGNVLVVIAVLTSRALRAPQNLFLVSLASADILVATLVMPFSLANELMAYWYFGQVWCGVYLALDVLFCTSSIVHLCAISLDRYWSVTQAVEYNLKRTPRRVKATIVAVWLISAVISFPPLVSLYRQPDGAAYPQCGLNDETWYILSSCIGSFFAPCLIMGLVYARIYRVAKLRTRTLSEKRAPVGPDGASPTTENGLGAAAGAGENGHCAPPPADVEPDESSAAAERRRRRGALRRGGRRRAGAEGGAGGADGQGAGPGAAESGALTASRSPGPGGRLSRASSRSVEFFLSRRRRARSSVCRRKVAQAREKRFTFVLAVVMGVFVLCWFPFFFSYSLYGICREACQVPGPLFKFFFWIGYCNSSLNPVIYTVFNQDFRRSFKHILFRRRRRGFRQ
# Type: functional

{"MOLECULE": "CN1CCCC(n2nc(Cc3ccc(Cl)cc3)c3ccccc3c2=O)CC1 (centres undefined)", "AC50": "2.4 µM"}
{"MOLECULE": "COC(=O)[C@H]1[C@@H](OC(=O)c2ccccc2)C[C@@H]2CC[C@H]1N2C", "AC50": "> 30 µM"}
{"MOLECULE": "CN1CCCN=C1COC(=O)C(O)(c1ccccc1)C1CCCCC1 (centres undefined)", "AC50": "> 10 µM"}
{"MOLECULE": "NC[C@H]1CC[C@H](C(=O)O)CC1", "AC50": "> 10 µM"}
{"MOLECULE": "CCCCOc1cc(C(=O)NCCN(CC)CC)c2ccccc2n1", "AC50": "> 10 µM"}
{"MOLECULE": "CCCCCCCCOc1ccccc1C(=O)Nc1ccc(C(=O)OCC[N+](C)(CC)CC)cc1 [OTILONIUM BROMIDE]", "AC50": "8.2 µM"}
{"MOLECULE": "CCCC(CCC)C(=O)O[C@H]1C[C@H]2CC[C@@H](C1)[N+]2(C)C", "AC50": "> 30 µM"}
{"MOLECULE": "CC(C)NCC1CCc2cc(CO)c([N+](=O)[O-])cc2N1 (centres undefined)", "AC50": "> 10 µM"}
{"MOLECULE": "O=C(O)c1cc(-c2ccc(F)cc2F)ccc1O", "AC50": "> 10 µM"}
{"MOLECULE": "CC(=O)N(CC(O)CO)c1c(I)c(C(=O)NCC(O)CO)c(I)c(C(=O)NCC(O)CO)c1I (centres undefined) [IOHEXOL]", "AC50": "> 10 µM"}
{"MOLECULE": "CC(=O)c1ccc2c(c1)N(CCCN1CCN(CCO)CC1)c1ccccc1S2", "AC50": "0.72 µM"}
{"MOLECULE": "CCCCC(C)(O)C/C=C/[C@H]1[C@H](O)CC(=O)[C@@H]1CCCCCCC(=O)OC (some centres undefined)", "AC50": "> 30 µM"}
{"MOLECULE": "C#CCN(C)[C@H](C)Cc1ccccc1", "AC50": "2.9 µM"}
{"MOLECULE": "CC(C(=O)O)c1ccc(N2CC=CC2)c(Cl)c1 (centres undefined)", "AC50": "> 10 µM"}
{"MOLECULE": "NS(=O)(=O)c1cc(Cl)c(Cl)c(S(N)(=O)=O)c1 [DICHLORPHENAMIDE]", "AC50": "> 10 µM"}
{"MOLECULE": "CC1=CC(=O)c2ccccc2C1=O", "AC50": "> 30 µM"}
{"MOLECULE": "CCc1ccc(CCOc2ccc(CC3SC(=O)NC3=O)cc2)nc1 (centres undefined)", "AC50": "> 10 µM"}
{"MOLECULE": "CC(C)[N+](C)(CCC(C(N)=O)(c1ccccc1)c1ccccc1)C(C)C [ISOPROPAMIDE]", "AC50": "> 10 µM"}
{"MOLECULE": "CN(C)[C@@H]1C(O)=C(C(N)=O)C(=O)[C@@]2(O)C(O)=C3C(=O)c4c(O)ccc(Cl)c4[C@@H](O)[C@H]3C[C@@H]12", "AC50": "> 10 µM"}
